System: corn
measurement notes: Test B pre/postemergence corn
Format: in vivo, Zea mays
study conditions: Preemergence, Rate 250 g/ha; scale 0 (no effect) to 10 (complete control)
observed property: Corn plant response rating
Reply with just the number.

molecule | system tested | Corn plant response rating
COc1ccc(N(C(=O)n2oc(=O)n(C(C)C)c2=O)C(C)C)cc1 | corn | 6
CC(C)N(C(=O)n1oc(=O)n(C(C)C2=NOCC2)c1=O)c1ccc(Cl)cc1 (racemic) | corn | 0

## Input Corn plant response rating lookup needed for COC1CCC(Cn2c(=O)on(C(=O)N(c3ccc(F)cc3)C(C)C)c2=O)=NO1 (stereo not shown) , thanks.
## Output 0

## Input Corn plant response rating lookup needed for CC(C)N(C(=O)n1oc(=O)n(CCCCCl)c1=O)c1ccc(F)cc1 , thanks.
## Output 0

###

Tested on: velvetleaf
measurement notes: Test B pre/postemergence velvetleaf
Assay type: in vivo, Abutilon theophrasti
study conditions: Rate 62 g/ha, Postemergence; scale of 0 to 10 where 0 is no effect and 10 is complete control
observed property: Velvetleaf plant response rating
Reply with just the number.

## Input Lookup: Velvetleaf plant response rating / velvetleaf / Cc1nc(C)c(-n2c(=O)on(C(=O)N(c3ccccc3)C(C)C)c2=O)s1
## Output 0

## Input Lookup: Velvetleaf plant response rating / velvetleaf / CCN(C(=O)n1oc(=O)n(C)c1=O)C1CCCCC1
## Output 0

## Input Lookup: Velvetleaf plant response rating / velvetleaf / Cc1onc(-c2ccccc2)c1-n1c(=O)on(C(=O)N(c2ccc(F)cc2)C(C)C)c1=O
## Output 0

## Input Lookup: Velvetleaf plant response rating / velvetleaf / CC1CC1Cn1c(=O)on(C(=O)N(c2ccc(F)cc2)C(C)C)c1=O (stereo not drawn)
## Output 0

## Input Lookup: Velvetleaf plant response rating / velvetleaf / Cc1nc(Cl)sc1C(C)n1c(=O)on(C(=O)N(c2ccc(F)cc2)C(C)C)c1=O (stereo not drawn)
## Output 0

## Input Lookup: Velvetleaf plant response rating / velvetleaf / COc1ccccc1Cn1c(=O)on(C(=O)N(c2ccc(F)cc2)C(C)C)c1=O
## Output 2

###

Wild oats plant response rating values for the compounds below.
Test system: wild oat
measurement notes: Test B pre/postemergence wild oat
Assay type: in vivo, Avena fatua
study conditions: Preemergence, Rate 500 g/ha; scale of 0 to 10 where 0 is no effect and 10 is complete control
Reply with just the number.

Example entries and their recorded answers appear below.
compound string | system tested | Wild oats plant response rating
CC(C)N(C(=O)n1oc(=O)n(C2CC2)c1=O)c1ccc(F)cc1F | wild oat | 8
CC(C)=CCn1c(=O)on(C(=O)N(c2ccc(F)cc2F)C(C)C)c1=O | wild oat | 9
CCc1cccc(CC)c1-n1c(=O)on(C(=O)N(c2ccccc2)C(C)C)c1=O | wild oat | 1
COCCOCn1c(=O)on(C(=O)N(c2ccc(F)cc2F)C(C)C)c1=O | wild oat | 9
CC(C)N(C(=O)n1oc(=O)n(CCC(F)(F)F)c1=O)c1ccc(Cl)cc1 | wild oat | 9

Next compound, please.
## Input Wild oats plant response rating lookup needed for COCn1c(=O)on(C(=O)N(c2ccccc2)C(C)C)c1=O , thanks.
## Output 10

###

Test system: surinam grass
measurement notes: Test B pre/postemergence surinam grass
Format: in vivo, Brachiaria decumbens
study conditions: Preemergence, Rate 250 g/ha; scale 0 (no effect) to 10 (complete control)
observed property: B. signalgrass plant response rating

Example entries and their recorded answers appear below.
compound | system tested | B. signalgrass plant response rating
CC(C)N(C(=O)n1oc(=O)n(CC2=NOCCO2)c1=O)c1ccc(F)cc1 | surinam grass | 7
CC(C)N(C(=O)n1oc(=O)n(CC2=NOCCO2)c1=O)c1ccc(F)cc1F | surinam grass | 7
CC(C)N(C(=O)n1oc(=O)n(CCCCl)c1=O)c1ccccc1 | surinam grass | 8

Next compound, please.
## Input B. signalgrass plant response rating lookup needed for COC1CCC(Cn2c(=O)on(C(=O)N(c3ccc(F)cc3)C(C)C)c2=O)=NO1 (stereo not shown) , thanks.
## Output 10

Taken from patent US6737383B1.
